# System: p-IKKβ
# ASSAY PROTOCOL: p-IKKβ levels in MiaPaCa2 cells
# Type: cell-based
# MEASUREMENT PARAMETERS: Homo sapiens, MIA PaCa-2, read-out: IC50 for reduction of p-IKKβ levels
VALUE TYPE: pIC50
# pIC50: negative log10 of molar concentration; output just the value

## Task What measured pIC50 goes with `Cn1cc(-c2cnc3ccc(NC(=O)Nc4ccc(F)c(Br)c4)cc3n2)cn1` ?
## Result 5.64

Data origin: paper PMC9170026
